B1: FUNDC2 (parent)
chain: YIKVDWQRVEKDMKKAKEQLKIRK

# Variants of: B1
# test: protein stability index of a GFP-peptide fusion (GPS, HEK-293T) (PSI 1-6); higher = more stable;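 also: lentivirally expressed fusions sorted by FACS into six bins by GFP to DsRed ratio, PSI derived from sequencing read proportions per bin multiplied by bin number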
# conditionInfo: c terminus: a fixed tail appended
The variants listed here are annotated with their protein stability index.
Please give only the number in your answer, with no unit.

[[record]]
mutationlist = "Y1T"
quantitativereadout = 3.07

[[record]]
mutationlist = "K15Q"
quantitativereadout = 2.5

[[record]]
mutationlist = "Q7E"
quantitativereadout = 1.92

[[record]]
mutationlist = "Q7S"
quantitativereadout = 1.76

[[record]]
mutationlist = "E10F"
quantitativereadout = 1.78


**Q:** Form field: reported protein stability index of K14Y
**A:** 4.38

**Q:** Form field: reported protein stability index of Q19F
**A:** 1.56

**Q:** Form field: reported protein stability index of K3P
**A:** 2.07
